Origin of measurements: patent US20240335442A1

Molecular target: human sodium channel Nav 1.8 (Homo sapiens (Human), UniProt Q9Y5Y9)
Sequence (Q9Y5Y9 whole entry): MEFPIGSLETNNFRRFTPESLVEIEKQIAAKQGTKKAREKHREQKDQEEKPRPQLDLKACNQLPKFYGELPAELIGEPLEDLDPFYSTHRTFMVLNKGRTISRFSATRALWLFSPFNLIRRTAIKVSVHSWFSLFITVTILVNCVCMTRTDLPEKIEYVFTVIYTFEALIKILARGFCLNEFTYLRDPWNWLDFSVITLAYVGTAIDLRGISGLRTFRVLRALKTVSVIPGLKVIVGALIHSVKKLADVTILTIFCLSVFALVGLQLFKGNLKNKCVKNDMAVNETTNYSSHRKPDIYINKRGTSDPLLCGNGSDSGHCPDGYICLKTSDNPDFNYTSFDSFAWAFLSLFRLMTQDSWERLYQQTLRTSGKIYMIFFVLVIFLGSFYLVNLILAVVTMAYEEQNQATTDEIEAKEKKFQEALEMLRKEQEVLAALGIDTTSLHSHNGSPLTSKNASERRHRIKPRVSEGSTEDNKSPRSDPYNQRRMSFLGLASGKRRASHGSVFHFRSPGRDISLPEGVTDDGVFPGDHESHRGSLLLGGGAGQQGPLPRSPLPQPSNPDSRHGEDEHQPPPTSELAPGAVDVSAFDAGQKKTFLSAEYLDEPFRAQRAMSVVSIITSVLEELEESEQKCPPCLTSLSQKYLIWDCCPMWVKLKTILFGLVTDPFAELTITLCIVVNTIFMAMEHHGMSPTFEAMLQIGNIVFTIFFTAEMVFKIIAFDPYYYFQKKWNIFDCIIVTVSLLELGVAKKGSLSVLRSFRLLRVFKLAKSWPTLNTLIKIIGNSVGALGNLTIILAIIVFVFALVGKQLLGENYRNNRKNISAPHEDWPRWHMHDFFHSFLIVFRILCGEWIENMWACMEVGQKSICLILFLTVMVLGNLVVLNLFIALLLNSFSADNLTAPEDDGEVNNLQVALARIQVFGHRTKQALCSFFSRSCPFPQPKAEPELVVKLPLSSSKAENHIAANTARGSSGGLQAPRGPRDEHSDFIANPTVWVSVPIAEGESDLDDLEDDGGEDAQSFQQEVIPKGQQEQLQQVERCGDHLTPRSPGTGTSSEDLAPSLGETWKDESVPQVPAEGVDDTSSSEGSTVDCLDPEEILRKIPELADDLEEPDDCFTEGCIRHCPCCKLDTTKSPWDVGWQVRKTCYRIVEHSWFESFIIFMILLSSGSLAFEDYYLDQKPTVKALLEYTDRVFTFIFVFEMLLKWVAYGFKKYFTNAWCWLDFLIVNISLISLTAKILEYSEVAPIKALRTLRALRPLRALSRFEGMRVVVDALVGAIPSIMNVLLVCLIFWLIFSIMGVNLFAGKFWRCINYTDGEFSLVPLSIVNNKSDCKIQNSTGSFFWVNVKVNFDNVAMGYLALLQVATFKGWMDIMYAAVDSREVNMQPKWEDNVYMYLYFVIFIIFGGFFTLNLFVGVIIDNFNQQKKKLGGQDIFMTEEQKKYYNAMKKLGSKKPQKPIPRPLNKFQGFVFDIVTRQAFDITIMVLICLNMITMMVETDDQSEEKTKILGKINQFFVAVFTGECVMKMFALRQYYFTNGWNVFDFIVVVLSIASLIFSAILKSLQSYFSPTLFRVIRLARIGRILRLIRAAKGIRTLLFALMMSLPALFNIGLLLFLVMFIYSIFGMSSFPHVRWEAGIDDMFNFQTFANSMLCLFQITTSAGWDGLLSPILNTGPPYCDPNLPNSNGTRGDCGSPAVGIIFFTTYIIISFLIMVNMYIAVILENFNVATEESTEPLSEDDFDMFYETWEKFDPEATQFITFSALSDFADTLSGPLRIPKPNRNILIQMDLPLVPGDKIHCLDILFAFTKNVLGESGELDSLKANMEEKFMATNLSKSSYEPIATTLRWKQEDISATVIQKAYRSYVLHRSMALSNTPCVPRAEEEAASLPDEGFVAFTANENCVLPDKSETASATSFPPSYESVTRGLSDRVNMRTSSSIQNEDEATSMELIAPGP
Experiment: Automated whole-cell voltage-clamp (ScreenPatch 384P), Nav 1.8 sodium current, Protocol 2
Assay type: cell-based
Conditions: read-out: Nav1.8 IC50
pIC50: −log10 of the molar value.
EXPERIMENTAL READOUT: pIC50

CCCOc1cccc(/C=N/NC(=O)c2cncc(-c3ccc(OC)cc3)n2)c1 [Compound 40] :: 6.56
COc1cc(/C=N/NC(=O)c2cncc(-c3ccc(C(F)F)cc3)n2)cc(OC)c1 [Compound 177] :: 6.02

----------
Target: human sodium channel Nav 1.7 (Homo sapiens (Human))
Sequence (Q15858 whole entry): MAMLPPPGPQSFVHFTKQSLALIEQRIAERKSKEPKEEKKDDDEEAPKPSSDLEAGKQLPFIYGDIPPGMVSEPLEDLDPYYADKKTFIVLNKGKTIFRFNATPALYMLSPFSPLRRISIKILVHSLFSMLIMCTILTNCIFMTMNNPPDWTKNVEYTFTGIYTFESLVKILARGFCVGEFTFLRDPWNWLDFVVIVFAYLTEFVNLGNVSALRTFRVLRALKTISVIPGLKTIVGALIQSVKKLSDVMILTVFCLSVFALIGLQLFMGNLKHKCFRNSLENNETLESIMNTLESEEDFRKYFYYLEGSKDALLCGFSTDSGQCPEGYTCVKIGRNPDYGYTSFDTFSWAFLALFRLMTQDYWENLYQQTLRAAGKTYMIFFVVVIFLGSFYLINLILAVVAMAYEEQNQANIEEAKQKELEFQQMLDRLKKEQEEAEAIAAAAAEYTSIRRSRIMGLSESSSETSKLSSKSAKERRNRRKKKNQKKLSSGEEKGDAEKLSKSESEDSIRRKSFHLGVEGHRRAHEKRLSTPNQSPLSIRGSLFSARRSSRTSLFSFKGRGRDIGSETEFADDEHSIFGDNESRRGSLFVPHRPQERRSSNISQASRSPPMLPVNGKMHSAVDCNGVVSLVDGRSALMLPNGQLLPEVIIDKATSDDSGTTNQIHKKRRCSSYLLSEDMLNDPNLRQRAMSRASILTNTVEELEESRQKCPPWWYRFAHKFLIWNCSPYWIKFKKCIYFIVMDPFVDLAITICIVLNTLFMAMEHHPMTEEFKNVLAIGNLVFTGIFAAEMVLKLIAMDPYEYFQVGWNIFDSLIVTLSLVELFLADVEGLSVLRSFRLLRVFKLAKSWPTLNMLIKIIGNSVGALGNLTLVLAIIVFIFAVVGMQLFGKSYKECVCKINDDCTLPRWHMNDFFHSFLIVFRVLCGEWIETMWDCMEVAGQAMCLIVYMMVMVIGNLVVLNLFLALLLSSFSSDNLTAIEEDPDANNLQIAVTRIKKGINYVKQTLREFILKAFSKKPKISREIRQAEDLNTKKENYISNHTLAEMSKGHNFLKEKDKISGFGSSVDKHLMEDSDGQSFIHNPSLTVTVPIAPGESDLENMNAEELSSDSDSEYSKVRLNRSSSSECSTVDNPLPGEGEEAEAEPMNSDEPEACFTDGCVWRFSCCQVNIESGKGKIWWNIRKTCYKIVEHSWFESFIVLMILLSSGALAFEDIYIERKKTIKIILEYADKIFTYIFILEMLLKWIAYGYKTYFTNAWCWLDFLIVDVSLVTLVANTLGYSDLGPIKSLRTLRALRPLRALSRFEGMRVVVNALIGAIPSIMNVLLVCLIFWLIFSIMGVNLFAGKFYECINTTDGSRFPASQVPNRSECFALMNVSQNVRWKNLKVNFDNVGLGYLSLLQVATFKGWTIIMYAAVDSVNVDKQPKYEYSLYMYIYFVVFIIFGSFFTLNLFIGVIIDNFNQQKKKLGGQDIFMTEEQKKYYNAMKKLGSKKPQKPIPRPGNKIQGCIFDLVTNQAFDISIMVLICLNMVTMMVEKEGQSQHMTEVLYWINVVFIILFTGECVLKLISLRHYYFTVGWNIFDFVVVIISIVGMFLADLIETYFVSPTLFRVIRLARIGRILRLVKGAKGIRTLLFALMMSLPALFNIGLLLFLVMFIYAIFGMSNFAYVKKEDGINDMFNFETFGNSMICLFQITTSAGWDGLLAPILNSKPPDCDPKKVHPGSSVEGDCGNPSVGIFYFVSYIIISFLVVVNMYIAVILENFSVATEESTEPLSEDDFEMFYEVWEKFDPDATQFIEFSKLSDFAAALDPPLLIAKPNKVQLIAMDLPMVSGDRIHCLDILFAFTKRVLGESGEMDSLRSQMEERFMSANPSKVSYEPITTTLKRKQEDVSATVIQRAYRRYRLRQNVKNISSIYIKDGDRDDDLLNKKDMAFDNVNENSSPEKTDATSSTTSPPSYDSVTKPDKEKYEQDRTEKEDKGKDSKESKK
Experiment: Automated whole-cell voltage-clamp (ScreenPatch 384P), Nav 1.7 sodium current, Protocol 2
Type: cell-based
Conditions: read-out: Nav1.7 IC50
EXPERIMENTAL READOUT: IC50

CCSc1ccc(-c2cncc(C(=O)N/N=C/c3cc(OC)cc(OC)c3)n2)cc1 [Compound 118] :: 416 nM
CCOc1ccc(-c2cncc(C(=O)N/N=C/c3cc(CCO)cc(OC)c3)n2)cc1 [Compound 214] :: > 10000 nM
COc1cc(/C=N/NC(=O)c2cncc(-c3ccc(C(F)F)cc3)n2)cc(OC)c1 [Compound 177] :: > 1000 nM
COc1ccc(-c2cncc(C(=O)N/N=C/c3cccc(OC(C)C)c3)n2)cc1 [Compound 41] :: 3290 nM
CCOc1ccc(-c2cncc(C(=O)N/N=C/c3cccc(OC)c3Cl)n2)cc1 [Compound 19] :: 575 nM
COc1cc(/C=N/NC(=O)c2cnc(C(C)C)cn2)cc(OC)c1 [Compound 136] :: > 10000 nM
COc1cc(/C=N/NC(=O)c2cncc(OC)n2)cc(OC)c1 [Compound 140] :: > 10000 nM
COc1cc(/C=N/NC(=O)c2cncc(-c3ccc(OCC4CC4)cc3)n2)cc(OC)c1 [Compound 152] :: 138 nM
COc1cc(/C=N/NC(=O)c2cncc(-c3ccccc3F)n2)cc(OC)c1 [Compound 98] :: > 10000 nM
COc1cc(/C=N/NC(=O)c2cncc(-c3ccccc3OC3CCCC3)n2)cc(OC)c1 [Compound 161] :: > 10000 nM
CCOc1ccc(-c2cncc(C(=O)N/N=C/c3cc(OC)cc(OC)c3OCC)n2)cc1 [Compound 14] :: 308 nM
CCOc1ccc(-c2cncc(C(=O)N/N=C/C3CCCCCC3)n2)cc1 [Compound 182] :: > 10000 nM
COc1cc(/C=N/NC(=O)c2cncc(N3CCOCC3)n2)cc(OC)c1 [Compound 126] :: > 10000 nM
COc1cc(/C=N/NC(=O)c2cncc(N3CCCCC3)n2)cc(OC)c1 [Compound 127] :: > 10000 nM
CCOc1ccc(-c2cnc(OC)c(C(=O)N/N=C/c3cc(OC)cc(OC)c3)n2)cc1 [Compound 145] :: > 300 nM
CCOc1ccc(-c2cncc(C(=O)N/N=C/c3cc(OC)cc4ocnc34)n2)cc1 [Compound 6] :: > 300 nM
Cc1cc(C)cc(/C=N/NC(=O)c2cncc(-c3ccc(OCC(C)C)cc3)n2)c1 [Compound 86] :: 141 nM
